# Procedure Summary: Half life in Sprague-Dawley rat at 5 mg/kg, po by LC-MS/MS method
# Type: ADME, organism-based
# Set-up: dose 5 mg/kg, route oral
# Measurement Setup: in vivo
Assay Endpoint: half-life (h)
Unit h implied. Number only.

Inquiry: Fill in: half-life of O=C(O)CNC(=O)CCc1cc(Cl)c(Oc2ccncc2C(=O)N2CCN(C3CC3)c3ccccc32)cc1Cl is ___
Reply text: 1.56

---

# Procedure Summary: Mean residence time in Sprague-Dawley rat at 5 mg/kg, po by LC-MS/MS method
# Type: ADME, organism-based
# Set-up: dose 5 mg/kg, route oral
# Measurement Setup: in vivo
Assay Endpoint: MRT (h)
Unit h implied. Number only.

Inquiry: Fill in: MRT of O=C(O)CNC(=O)CCc1cc(Cl)c(Oc2ccncc2C(=O)N2CCN(C3CC3)c3ccccc32)cc1Cl is ___
Reply text: 2.37
